The reported measurements were obtained from PubChem BioAssay (NCI).

# System: SK-OV-3 ovarian
# assayRemarks: NCI tumour cell line growth inhibition, 48 h
valueKind: TGI

- C=CC(=O)NCNC(=O)C=C: > 100 µM
- c1ccc(-c2cc(-c3ccncc3)cc(-c3ccncc3)n2)cc1: > 100 µM
- O=[N+]([O-])c1ccc(/C(Cl)=C/c2ccc(/C=C(\Cl)c3ccc([N+](=O)[O-])cc3[N+](=O)[O-])cc2)c([N+](=O)[O-])c1: > 100 µM
- O=c1[nH]c2ccccc2n2cc3ccccc3c12: 35.8 µM
- CC(=O)O[C@H]1CC[C@@]2(C)C(=CC[C@@H]3[C@@H]2CC[C@](C)(c2nnc(C)o2)[C@H]3CC#N)C1: > 100 µM
- CC(C)OC(=O)NNc1cccc(Cl)c1: > 100 µM
- O=C(NS(=O)(=O)c1ccc(NC[C@H]2COCCO2)c([N+](=O)[O-])c1)c1ccc(N2CCN(CC3=C(c4ccc(Cl)cc4)CC4(CCC4)CC3)CC2)cc1Oc1cnc2[nH]ccc2c1: 4.57 µM
- COc1ccc(-n2c(Cn3nnc(-c4cccnc4)n3)nn(C3OC(COC(=O)c4ccccc4)C(OC(=O)c4ccccc4)C3OC(=O)c3ccccc3)c2=S)cc1 (centres undefined): > 100 µM
- c1ccc2nn(C3CCCO3)nc2c1 (centres undefined): > 100 µM

###

Measured TGI by item
# Tested on: SK-MEL-5 melanoma
# assayRemarks: NCI tumour cell line growth inhibition, 48 h
valueKind: TGI (µM)

• CCCCN(CC)CCCCCCCCCCN1CCCc2cc(OC)ccc21 = 3.12
• Cc1cccc(N=C/C=C(\Cl)c2ccc3ccccc3c2)c1 = 37.1
• CN(CSc1ccc(Cl)cc1)c1ccc(CSc2ccc(Cl)cc2)cc1 = 19.8
• CCCCCCc1cc2cc(-c3csc(/C=C/c4ccccc4)n3)c(=O)oc2cc1O = 49.3
• CC(=O)OCC1OC(OC(C)=O)C(Nc2ncc(-c3ccc(C)cc3)s2)C(OC(C)=O)C1OC(C)=O (stereo not given) = 29.2

###

# System: NCI-H460 lung
# assayRemarks: NCI tumour cell line growth inhibition, 48 h
Measured TGI by item
valueKind: TGI

• NC(=N\N=C/c1ccc(Cl)cc1Cl)/C(N)=N\N=C/c1ccc(Cl)cc1Cl = > 100 µM
• O=c1[nH]c(F)nc2c1ncn2C1OC(CO)C(O)C1O (stereo not given) = > 100 µM
• Nc1nc(Br)nc2ncn(C3CC(O)C(CO)O3)c12 (stereo not given) = > 100 µM
• CC(C)(CN1CCCCC1)C(=O)CC(SCCN)c1ccc(Cl)cc1 (stereo not given) = 5.43 µM
• O=[N+]([O-])c1ccc(/C(Cl)=C/c2ccc(/C=C(\Cl)c3ccc([N+](=O)[O-])cc3[N+](=O)[O-])cc2)c([N+](=O)[O-])c1 = > 100 µM
• Cc1cccc(N=C/C=C(\Cl)c2ccc3ccccc3c2)c1 = > 80.9 µM
• O=C1CCCC2=C1CC1=C(CCCC1=O)N2c1ccc([N+](=O)[O-])cc1 = > 100 µM
• CC(=O)OCC1OC(OC(C)=O)C(Nc2ncc(-c3ccc(C)cc3)s2)C(OC(C)=O)C1OC(C)=O (stereo not given) = 40.7 µM
• O=C(Cc1ccc(Nc2ccnc(C(F)(F)F)c2)cc1)N/N=C/c1ccccc1O = 10.6 µM
• COc1ccc2c(c1)-c1nc(=O)n(CCCN(C)C)c3ccc([N+](=O)[O-])c(c13)N2 = 15.1 µM
